# IC50 per entry
- system.tested: Recombinant full length human OGA enzyme (Homo sapiens (Human))
- Sequence (O60502 whole entry): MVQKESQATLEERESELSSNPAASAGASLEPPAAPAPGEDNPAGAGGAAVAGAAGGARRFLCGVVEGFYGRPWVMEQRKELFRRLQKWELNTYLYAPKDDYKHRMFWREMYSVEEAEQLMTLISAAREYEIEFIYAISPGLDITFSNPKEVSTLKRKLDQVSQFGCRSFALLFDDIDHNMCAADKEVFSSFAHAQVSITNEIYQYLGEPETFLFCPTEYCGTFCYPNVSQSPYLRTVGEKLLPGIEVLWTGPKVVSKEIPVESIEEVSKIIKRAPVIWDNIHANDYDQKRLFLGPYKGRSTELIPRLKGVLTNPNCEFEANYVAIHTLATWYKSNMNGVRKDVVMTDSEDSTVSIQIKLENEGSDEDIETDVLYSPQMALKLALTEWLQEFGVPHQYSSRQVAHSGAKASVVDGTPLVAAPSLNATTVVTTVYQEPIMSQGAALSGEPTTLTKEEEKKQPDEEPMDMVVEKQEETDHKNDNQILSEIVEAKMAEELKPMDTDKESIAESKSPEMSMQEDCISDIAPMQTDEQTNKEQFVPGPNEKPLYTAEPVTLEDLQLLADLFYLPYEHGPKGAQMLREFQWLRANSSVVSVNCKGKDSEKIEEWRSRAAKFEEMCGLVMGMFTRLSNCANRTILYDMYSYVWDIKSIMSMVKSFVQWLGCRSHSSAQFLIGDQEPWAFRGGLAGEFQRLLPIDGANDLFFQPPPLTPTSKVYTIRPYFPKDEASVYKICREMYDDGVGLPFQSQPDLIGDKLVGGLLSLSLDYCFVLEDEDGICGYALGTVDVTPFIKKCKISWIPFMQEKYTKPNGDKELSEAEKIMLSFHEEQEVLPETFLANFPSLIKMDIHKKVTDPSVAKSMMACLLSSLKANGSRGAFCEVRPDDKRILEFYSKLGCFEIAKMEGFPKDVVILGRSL
- test.method.notes: OGA Enzyme Inhibition Biochemical Assay
- details: 1 nM OGA, 100 μM 4-MUGlcNAc, pH 6.4

Solved cases below.
| compound | system.tested | measurement.kind | experimental.value |
| --- | --- | --- | --- |
| CC(=O)Nc1nc(F)c(CN2C[C@@H](Oc3cc(C)nc(C)c3)CC[C@@H]2C)s1 [Example 1-56] | Recombinant full length human OGA enzyme (Homo sapiens (Human)) | IC50 | < 1 nM |
| COc1cc(O[C@@H]2C[C@H](C)N(Cc3sc(NC(C)=O)nc3F)C2)ncn1 [Example 1-22] | Recombinant full length human OGA enzyme (Homo sapiens (Human)) | IC50 | < 1 nM |
| CC(=O)Nc1nc(F)c(CN2C[C@H](Oc3ncc(Cl)cn3)C[C@@H]2C)s1 [Example 1-95] | Recombinant full length human OGA enzyme (Homo sapiens (Human)) | IC50 | < 1 nM |
| CC(=O)Nc1ncc(CN2C[C@H](Oc3cc(OC4CCCC4)ncn3)C[C@@H]2C)s1 [Example 1-138] | Recombinant full length human OGA enzyme (Homo sapiens (Human)) | IC50 | < 1 nM |
| CO[C@H]1C[C@@H](Oc2cc(O[C@@H]3C[C@H](C)N(Cc4cnc(NC(C)=O)s4)C3)ncn2)C1 [Example 1-123] | Recombinant full length human OGA enzyme (Homo sapiens (Human)) | IC50 | 1.1 nM |
| CC(=O)Nc1nc(F)c(CN2C[C@H](Oc3ccc(N4CCOCC4)cn3)C[C@@H]2C)s1 [Example 1-146] | Recombinant full length human OGA enzyme (Homo sapiens (Human)) | IC50 | < 1 nM |
| CC(=O)Nc1ncc(CN2C[C@H](Oc3cc(C)ncc3C)C[C@@H]2C)s1 [Example 1-72] | Recombinant full length human OGA enzyme (Homo sapiens (Human)) | IC50 | 7.2 nM |
| CC(=O)Nc1nc(F)c(CN2C[C@H](Oc3ccc(F)cn3)C[C@@H]2C)s1 [Example 1-47] | Recombinant full length human OGA enzyme (Homo sapiens (Human)) | IC50 | < 1 nM |

As a next step, examine the compound that follows.
What IC50 value was documented for this compound, CC(=O)Nc1nc(F)c(CN2C[C@H](Oc3cc(N4CCOCC4)ccn3)C[C@@H]2C)s1 [Example 1-143] ?
< 1 nM

###

- system.tested: OGA (S400 O-GLCNAC), HEK-293T cells transfected with Tau-V5 (Homo sapiens (Human), UniProt O60502)
- Sequence (O60502 whole entry): as above
- test.method.notes: Cellular OGA-Tau MSD Assay
- Format: cell-based
- details: HEK-293T cells, Tau-S400-GlcNAc MSD readout
- Protocol: HEK-293T cells were transfected with […] and Tau-V5 plasmids using Lipofectamine and grown overnight. Next day, the cells were collected and re-plated at 1×10^5 cells per well in 96 well plates. […] Final read out was carried out on an MSD 600 reader. The data was analyzed using Graph Pad or Genedata, the data was normalized and % activity versus log of compound concentration was plotted. […]
measurement.kind: IC50

Solved cases below.
| record.smiles | experimental.value |
| --- | --- |
| CC(=O)Nc1ncc(CN2C[C@H](Oc3ncc(F)cn3)C[C@@H]2C)s1 | < 1 nM |
| CC(=O)Nc1ncc(CN2C[C@H](Oc3ncc(OC(F)F)cn3)C[C@@H]2C)s1 | < 1 nM |

As a next step, examine the compound that follows.
What IC50 value was documented for this compound, CC(=O)Nc1ncc(CN2CC[C@H](Oc3cc(C)nc(C)c3)C2)s1 ?
> 1000 nM
